The measured values listed here are drawn from paper PMC5315062.

experiment: Single-dose pharmacokinetics of ponatinib in rats; format: in vivo, Sprague–Dawley rats; conditions: both, Sprague-Dawley, rat, plasma, po, 7.5 mg/kg, T max, i.g. 7.5 mg/kg
PROPERTY_NAME: Tmax (h)
Report the figure in h without appending any unit label.

So what does the record say about Tmax for Cc1ccc(C(=O)Nc2ccc(CN3CCN(C)CC3)c(C(F)(F)F)c2)cc1C#Cc1cnc2cccnn12 ? 8.4

---

assay: Single-dose pharmacokinetics of ponatinib in rats; assay type: in vivo, Sprague–Dawley rats; conditions: both, Sprague-Dawley, rat, plasma, po, 15 mg/kg
PROPERTY_NAME: MRT (h)
Record the value in h, omitting the unit from your answer.

Reported MRT, compound Cc1ccc(C(=O)Nc2ccc(CN3CCN(C)CC3)c(C(F)(F)F)c2)cc1C#Cc1cnc2cccnn12 : ____ 16.7

---

assay: Single-dose pharmacokinetics of ponatinib in rats; assay type: in vivo, Sprague–Dawley rats; details: both, Sprague-Dawley, rat, plasma, iv, 3 mg/kg
PROPERTY_NAME: concentration at 5 min (ng/mL)
Expressed in ng/mL, but write only the number.

What does the data say about its concentration at 5 min? Entry: Cc1ccc(C(=O)Nc2ccc(CN3CCN(C)CC3)c(C(F)(F)F)c2)cc1C#Cc1cnc2cccnn12 [ponatinib, Ponatinib] 281

---

experiment: Single-dose pharmacokinetics of ponatinib in rats; assay type: in vivo, Sprague–Dawley rats; conditions: both, Sprague-Dawley, rat, plasma, po, 30 mg/kg
PROPERTY_NAME: Cmax (ng/mL)
Write the number in ng/mL without appending the unit.

Please report the recorded Cmax for Cc1ccc(C(=O)Nc2ccc(CN3CCN(C)CC3)c(C(F)(F)F)c2)cc1C#Cc1cnc2cccnn12 [ponatinib, Ponatinib] . 638

---

experiment: Single- versus multi-dose; conditions: both, Sprague-Dawley, rat, in vivo, po, 3.75 mg/kg
PROPERTY_NAME: Cmax (ng/mL)
Field: numeric (ng/mL). Do not append units.

Which Cmax is reported for this molecule? Cc1ccc(C(=O)Nc2ccc(CN3CCN(C)CC3)c(C(F)(F)F)c2)cc1C#Cc1cnc2cccnn12 129

---

experiment: Single- versus multi-dose; conditions: both, Sprague-Dawley, rat, in vivo, po, 3.75 mg/kg
PROPERTY_NAME: Cmax at 7 days (ng/mL)
Note: unit ng/mL is implicit; provide only the numeric part.

Name the reported Cmax at 7 days value associated with the compound Cc1ccc(C(=O)Nc2ccc(CN3CCN(C)CC3)c(C(F)(F)F)c2)cc1C#Cc1cnc2cccnn12 189

---

experiment: Single-dose pharmacokinetics of ponatinib in rats; format: in vivo, Sprague–Dawley rats; settings: both, Sprague-Dawley, rat, plasma, po, 7.5 mg/kg
PROPERTY_NAME: Cmax (ng/mL)
Write it as a number; the unit ng/mL goes unstated.

What Cmax value was documented for this molecule, Cc1ccc(C(=O)Nc2ccc(CN3CCN(C)CC3)c(C(F)(F)F)c2)cc1C#Cc1cnc2cccnn12 [ponatinib, Ponatinib] ? 104

---

experiment: Single- versus multi-dose; conditions: both, Sprague-Dawley, rat, in vivo, po, 3.75 mg/kg
PROPERTY_NAME: half-life (h)
Please give a number only; it is taken to be in h.

Look up half-life: Cc1ccc(C(=O)Nc2ccc(CN3CCN(C)CC3)c(C(F)(F)F)c2)cc1C#Cc1cnc2cccnn12 11.3

---

test: Single-dose pharmacokinetics of ponatinib in rats; assay type: in vivo, Sprague–Dawley rats; details: both, Sprague-Dawley, rat, plasma, po, 30 mg/kg, T max, i.g. 30.0 mg/kg
PROPERTY_NAME: Tmax

Give the measured Tmax of Cc1ccc(C(=O)Nc2ccc(CN3CCN(C)CC3)c(C(F)(F)F)c2)cc1C#Cc1cnc2cccnn12 . 7.67 h
